Reference source for all entries: paper PMC10786891

Please respond with reported Kd for every item in the list.
targetOfAssay: T1, EsCas13d, nuclease-dead (Eubacterium siraeum, UniProt B0MS50, R295A;H300A;R849A;H854A)
T1 sequence: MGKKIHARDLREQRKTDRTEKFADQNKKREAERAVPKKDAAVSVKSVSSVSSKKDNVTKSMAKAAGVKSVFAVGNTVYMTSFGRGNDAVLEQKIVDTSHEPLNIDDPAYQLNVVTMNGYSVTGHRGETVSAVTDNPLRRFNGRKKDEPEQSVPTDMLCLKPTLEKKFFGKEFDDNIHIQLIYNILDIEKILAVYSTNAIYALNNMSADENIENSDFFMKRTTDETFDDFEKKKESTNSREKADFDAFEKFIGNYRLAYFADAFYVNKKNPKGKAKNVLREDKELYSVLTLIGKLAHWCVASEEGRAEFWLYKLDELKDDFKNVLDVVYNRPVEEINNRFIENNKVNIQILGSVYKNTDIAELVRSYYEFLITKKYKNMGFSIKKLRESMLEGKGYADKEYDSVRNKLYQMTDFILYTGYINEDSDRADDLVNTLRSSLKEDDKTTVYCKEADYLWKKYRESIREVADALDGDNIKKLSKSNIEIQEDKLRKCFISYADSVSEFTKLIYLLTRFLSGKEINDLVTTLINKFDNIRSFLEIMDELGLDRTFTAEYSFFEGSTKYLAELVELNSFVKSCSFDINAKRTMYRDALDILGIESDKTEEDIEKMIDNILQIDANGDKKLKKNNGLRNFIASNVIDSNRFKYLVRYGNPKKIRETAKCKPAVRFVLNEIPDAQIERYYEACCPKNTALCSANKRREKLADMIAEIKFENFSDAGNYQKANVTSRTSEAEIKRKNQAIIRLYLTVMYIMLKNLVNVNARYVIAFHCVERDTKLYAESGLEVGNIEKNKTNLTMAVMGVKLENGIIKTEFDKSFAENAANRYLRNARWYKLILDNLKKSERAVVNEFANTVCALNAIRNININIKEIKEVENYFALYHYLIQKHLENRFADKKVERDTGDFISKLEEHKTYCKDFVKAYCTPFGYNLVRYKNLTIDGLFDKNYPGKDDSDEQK
assayDetails: crRNA (strand 1, pre-loaded); Mg2+; 40 mM Tris-HCl pH 7.5, 150 mM NaCl, 6 mM MgCl2, 1 mM DTT, 0.1% Tween-20, 0.2 mg/ml BSA; 25 C; 10 min per concentration, then washed
details: tags: His6-TwinStrep-SUMO cleaved; N-terminal SNAP kept (SNAP-Surface 488); label: 3' end held by stalled T7 RNA polymerase
Answers are plain numbers, in nM.

target 1 U3G,U11G (mixed) RNA 1: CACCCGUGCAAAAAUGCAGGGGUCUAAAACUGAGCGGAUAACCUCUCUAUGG RNA 2: GGGAAUGGAUCCACAUCUACGAAUUCGUACCAUAGAGAGGGUAUCCGCGCACCGAGAUCGGAAGAGCACACGU: 11.7

Turning to the following binder.
Look up Kd of target 3 G4A,U22G (mixed) RNA 1: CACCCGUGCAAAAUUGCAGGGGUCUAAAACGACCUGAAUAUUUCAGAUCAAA RNA 2: GGGAAUGGAUCCACAUCUACGAAUUCGUUGUUGAUCUGAAAUAUUCAAGUCUGCAGAUCGGAAGAGCACACGU and report it. 56.5
